Just for reference, the supplement of paper PMC3545927 is where these values come from.

# Measurement target: furin, P09958;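 also: purified furin at 1:10 enzyme:substrate in 50 mM HEPES pH 7.5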
# Sequence (P09958 whole entry): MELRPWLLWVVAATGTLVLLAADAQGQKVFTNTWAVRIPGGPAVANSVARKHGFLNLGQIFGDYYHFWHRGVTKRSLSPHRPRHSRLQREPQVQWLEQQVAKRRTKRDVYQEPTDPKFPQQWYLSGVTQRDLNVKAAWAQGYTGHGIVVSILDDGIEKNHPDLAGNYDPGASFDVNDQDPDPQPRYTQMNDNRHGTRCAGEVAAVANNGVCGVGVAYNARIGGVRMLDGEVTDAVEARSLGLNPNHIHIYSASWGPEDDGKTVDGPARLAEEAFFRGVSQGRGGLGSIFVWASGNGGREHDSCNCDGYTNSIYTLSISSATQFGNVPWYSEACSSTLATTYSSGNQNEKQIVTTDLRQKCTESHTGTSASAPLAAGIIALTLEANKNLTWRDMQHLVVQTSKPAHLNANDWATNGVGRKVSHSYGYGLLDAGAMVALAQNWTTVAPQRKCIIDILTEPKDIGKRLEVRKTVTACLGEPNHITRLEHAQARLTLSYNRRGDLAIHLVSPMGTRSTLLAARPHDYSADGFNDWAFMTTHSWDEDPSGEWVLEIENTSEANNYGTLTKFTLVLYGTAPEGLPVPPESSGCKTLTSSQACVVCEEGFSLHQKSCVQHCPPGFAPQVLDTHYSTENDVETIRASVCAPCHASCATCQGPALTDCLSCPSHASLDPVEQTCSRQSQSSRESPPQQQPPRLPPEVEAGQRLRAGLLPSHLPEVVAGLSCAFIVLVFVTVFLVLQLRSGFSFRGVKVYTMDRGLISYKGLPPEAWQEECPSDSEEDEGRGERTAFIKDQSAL
# Protocol text: furin cleavage Z-score vs untreated control; higher = more cleavage, active = 3.5 or more, inactive = 1 or less, 8 variable residues between constant flanks
# Assay conditions: 30 min
The other results are listed elsewhere or left out. How many sequences the whole screen found active is unknown.
Possible outcomes: active, inactive

- CASWHLNSTAAGNASASA [HC370]: inactive
- CAFAERQRRSAGNASASA [FS-1588]: active
- CALTVPASAYAGNASASA [HC253]: inactive
- CAFAERSGRGAGNASASA [FS-1322]: inactive
- CADLSDGSWSAGNASASA [HC1360]: inactive
- CARCHARKAVAGNASASA [HC1425]: inactive
- CASIEPLDLPAGNASASA [HC1597]: inactive
